Assay: qHTS assay to identify small molecule agonists of H2AX (AID 1224845); also: % is scaled to controls: 0 for no effect and ±100 for the full control effect
Conditions: CHO-K1 phospho-H2AX Ser139 HTRF, 3 h; series mostly up to 154 µM
Results filed as inconclusive are left out. Calls of active or inactive are those of the source. Calls follow the shape of the dose curve; as a rule, active = well fitted activation curve with a large enough effect in the signal ratio in the repeat runs (not every such curve was filed as active); inconclusive = weak or mixed curves; inactive = flat fitted curve, though single readings scatter; the % refers to the signal ratio.
quantity-kind: outcome

Known outcome results, listed for orientation:
# compound, outcome
records = [
    ("OC1(c2ccccc2)CCNCC1", "inactive"),
    ("CCCCCCCCC(CCCCCC)C(=O)O (centres undefined)", "inactive"),
    ("CC/C=C1/OC(=O)c2ccccc21", "inactive"),
    ("OC(CCN1CCCC1)(c1ccccc1)C1CCCCC1 (centres undefined)", "inactive"),
    ("CN1C(=O)OC(C)(C)C1=O", "inactive"),
]

Supply measured outcome of CC(CCC(=O)O)C(=O)O (centres undefined) in your reply.
inactive

Please indicate outcome recorded for "O=C(O)CCCCCCCCCCCBr"
inactive

Kindly indicate its recorded outcome. Item: "CC(=O)Nc1ccc(C)cc1C"
inactive

Please look at this compound and report its outcome: "CCCCCCC(C)(C)C(=O)O"
inactive

---

Experiment: qHTS assay to identify small molecule agonists of the estrogen related receptor (ERR) signaling pathway from Tox21 library (AID 1224849); also: % is scaled to controls: 0 for no effect and ±100 for the full control effect; nearly all actives have a fitted effect of over 15% in size
Conditions: ERR reporter cell line, ONE-Glo luciferase, 18 h; at 92.4 µM (top of the series) unless noted
The source made the active and inactive calls. Calls follow the shape of the full dose curve.
quantity-kind: activity change, positive = activation

Reference set (5 entries):
# molecule, quantity-kind, data-value
rows = [
    ("COc1ccc(OC(=O)N(CC(=O)O)Cc2ccc(OCCc3nc(-c4ccccc4)oc3C)cc2)cc1", "activity change, positive = activation", "-6.74% [at 42.5 µM] (inactive)"),
    ("CC(=O)[C@H]1[C@H](C#N)C[C@H]2[C@@H]3CC=C4C[C@@H](O)CC[C@]4(C)[C@H]3CC[C@@]21C", "activity change, positive = activation", "-13.1% [at 42.5 µM] (inactive)"),
    ("O=C=Nc1ccc(Cl)c(Cl)c1", "activity change, positive = activation", "-41% (inactive)"),
    ("CCOC(=O)c1ccc(I)cc1", "activity change, positive = activation", "-4.74% (inactive)"),
    ("CCCC(C(=O)OCCN(CC)CC)(c1ccccc1)c1ccccc1", "activity change, positive = activation", "-35.3% [at 42.5 µM] (inactive)"),
]

Give the value of activity change, positive = activation reported for the following: "C[C@@H](O[C@H]1OCCN(Cc2n[nH]c(=O)[nH]2)[C@H]1c1ccc(F)cc1)c1cc(C(F)(F)F)cc(C(F)(F)F)c1"
-53.3% [at 42.5 µM] (inactive)

Look up and state reported activity change, positive = activation for "CCOC(=O)c1ccccc1C(=C1C=C(Br)C(=O)C(Br)=C1)c1cc(Br)c(O)c(Br)c1"
-32.1% [at 42.5 µM] (inactive)

Given CN1CCCC(n2nc(Cc3ccc(Cl)cc3)c3ccccc3c2=O)CC1 (stereo unspecified) , respond with its activity change, positive = activation.
-15.1% [at 42.5 µM] (inactive)

Please give measured activity change, positive = activation of the following entry: "CC1=C(Br)C(=O)C(Br)=C/C1=C(/c1ccccc1S(=O)(=O)O)c1cc(Br)c(O)c(Br)c1C"
-55.4% [at 42.5 µM] (inactive)

Please give measured activity change, positive = activation of the following entry: "OCCN1CCN(CCCN2c3ccccc3Sc3ccc(Cl)cc32)CC1"
-48% [at 42.5 µM] (inactive)
